Provide the reported log10(IC90) of each item.
# Tested on: Becap37 (human breast cancer cell)
# assay_remarks: MTT growth inhibition of human solid tumor cells, 72 h
# Format: cell-based
# applied_conditions: Homo sapiens; Becap-37, 72 h; read-out: IC90
# Protocol: […] Obtaining 4000 well-growing human solid tumor cells and inoculating them into wells of a 96-well cell culture plate. […] Then the viable cell concentration is determined by the MTT method.
For clarity, the numbers are log10 values of IC90 expressed in µg/mL.

## Task Report log10(IC90) under test system Becap37 (human breast cancer cell) for `Cc1c(CNCC2CC2)oc2c1C(=O)C(=O)c1c-2ccc2c(C)cccc12` .
## Result 1.16

## Task Report log10(IC90) under test system Becap37 (human breast cancer cell) for `Cc1c(CN(C)CCOC(=O)C(C)(C)C)oc2c1C(=O)C(=O)c1c-2ccc2c(C)cccc12` .
## Result 1.06

## Task Report log10(IC90) under test system Becap37 (human breast cancer cell) for `Cc1c(CNCCO)oc2c1C(=O)C(=O)c1c-2ccc2c(C)cccc12` .
## Result -0.17

## Task Report log10(IC90) under test system Becap37 (human breast cancer cell) for `CCN(C)Cc1oc2c(c1C)C(=O)C(=O)c1c-2ccc2c(C)cccc12` .
## Result 0.97

## Task Report log10(IC90) under test system Becap37 (human breast cancer cell) for `CC(=O)OCCN(C)Cc1oc2c(c1C)C(=O)C(=O)c1c-2ccc2c(C)cccc12` .
## Result 0.69

## Task Report log10(IC90) under test system Becap37 (human breast cancer cell) for Cc1c(C[N+](C)(CCO)Cc2ccc(F)c(Cl)c2)oc2c1C(=O)C(=O)c1c-2ccc2c(C)cccc12 (stereo not shown) .
## Result 0.56

## Task Report log10(IC90) under test system Becap37 (human breast cancer cell) for `Cc1c(COC(=O)c2ccnc(Cl)c2)oc2c1C(=O)C(=O)c1c-2ccc2c(C)cccc12` .
## Result 1.03

## Task Report log10(IC90) under test system Becap37 (human breast cancer cell) for `Cc1c(CN(C)CCO)oc2c1C(=O)C(=O)c1c-2ccc2c(C)cccc12` .
## Result 0.25

## Task Report log10(IC90) under test system Becap37 (human breast cancer cell) for `C#CCNCc1oc2c(c1C)C(=O)C(=O)c1c-2ccc2c(C)cccc12` .
## Result 1.18

## Task Report log10(IC90) under test system Becap37 (human breast cancer cell) for `Cc1c(CN(C)CCOC(=O)C2CCNCC2)oc2c1C(=O)C(=O)c1c-2ccc2c(C)cccc12` .
## Result 0.22

## Task Report log10(IC90) under test system Becap37 (human breast cancer cell) for `Cc1c(CN(C)CCOC(=O)[C@@H](N)C(C)C)oc2c1C(=O)C(=O)c1c-2ccc2c(C)cccc12` .
## Result -0.05

## Task Report log10(IC90) under test system Becap37 (human breast cancer cell) for `Cc1c(CN(C)CCOC(=O)CNC(=O)OC(C)(C)C)oc2c1C(=O)C(=O)c1c-2ccc2c(C)cccc12` .
## Result 0.29

## Task Report log10(IC90) under test system Becap37 (human breast cancer cell) for `Cc1c(CN(C)CCOC(=O)CCC(=O)O)oc2c1C(=O)C(=O)c1c-2ccc2c(C)cccc12` .
## Result 0.28

## Task Report log10(IC90) under test system Becap37 (human breast cancer cell) for `COC(=O)/C=C/C(=O)OCCN(C)Cc1oc2c(c1C)C(=O)C(=O)c1c-2ccc2c(C)cccc12` .
## Result 0.26

## Task Report log10(IC90) under test system Becap37 (human breast cancer cell) for `Cc1c(CN(C)Cc2ccccc2)oc2c1C(=O)C(=O)c1c-2ccc2c(C)cccc12` .
## Result 0.57

## Task Report log10(IC90) under test system Becap37 (human breast cancer cell) for `Cc1c(CN2CCCN(C)CC2)oc2c1C(=O)C(=O)c1c-2ccc2c(C)cccc12` .
## Result 0.87

====

# Tested on: Hep-2 (laryngeal carcinoma)
# assay_remarks: MTT growth inhibition of human solid tumor cells, 72 h
# Assay type: cell-based
# applied_conditions: Homo sapiens, HEp-2, 72 h; read-out: IC90
recorded_endpoint: IC90 (µg/mL)
Dear colleague, please return just the value in µg/mL, with no unit written.

## Task Please list IC90 recorded for the compound CC(=O)OCCN(C)Cc1oc2c(c1C)C(=O)C(=O)c1c-2ccc2c(C)cccc12 [BS-TA-61]
## Result 2.52

## Task Please list IC90 recorded for the compound Cc1c(CN(C)CCOC(=O)[C@@H](N)C(C)C)oc2c1C(=O)C(=O)c1c-2ccc2c(C)cccc12 [BS-TA-71]
## Result 1.76

## Task Please list IC90 recorded for the compound Cc1c(CN(C)CCO)oc2c1C(=O)C(=O)c1c-2ccc2c(C)cccc12 [BS-TA-B17]
## Result 2.79

## Task Please list IC90 recorded for the compound Cc1c(C[N+](C)(CCO)Cc2ccc(F)c(Cl)c2)oc2c1C(=O)C(=O)c1c-2ccc2c(C)cccc12 (stereo not shown) [BS-TA-60]
## Result 7.41

====

Provide the reported IC50 of each item.
# Tested on: PC-3 (prostate cancer)
# assay_remarks: MTT growth inhibition of human solid tumor cells, 72 h
# Assay type: cell-based
# applied_conditions: Homo sapiens; PC-3, 72 h; read-out: IC50
Dear colleague, please return just the value in µg/mL, with no unit written.

## Task Please list IC50 recorded for the compound `CCC(=O)OCc1oc2c(c1C)C(=O)C(=O)c1c-2ccc2c(C)cccc12`
## Result 14.4

## Task Please list IC50 recorded for the compound `Cc1c(CNCC2CCCCC2)oc2c1C(=O)C(=O)c1c-2ccc2c(C)cccc12`
## Result 10.3

## Task Please list IC50 recorded for the compound `Cc1c(CNCCO)oc2c1C(=O)C(=O)c1c-2ccc2c(C)cccc12`
## Result 0.44

====

# System: PC-3 (prostate cancer)
# assay_remarks: MTT growth inhibition of human solid tumor cells, 72 h
# Type: cell-based
# applied_conditions: Homo sapiens; PC-3, 72 h; read-out: IC90
recorded_endpoint: IC90 (µg/mL)
Dear colleague, please return just the value in µg/mL, with no unit written.

## Task Please list IC90 recorded for the compound CC(=O)OCCN(C)Cc1oc2c(c1C)C(=O)C(=O)c1c-2ccc2c(C)cccc12 [BS-TA-61]
## Result 6.49

## Task Please list IC90 recorded for the compound Cc1c(CN2CCCN(C)CC2)oc2c1C(=O)C(=O)c1c-2ccc2c(C)cccc12 [BS-TA-B12]
## Result 11.2

## Task Please list IC90 recorded for the compound Cc1c(CN(C)Cc2ccccc2)oc2c1C(=O)C(=O)c1c-2ccc2c(C)cccc12 [BS-TA-B01]
## Result 16

## Task Please list IC90 recorded for the compound Cc1c(CNCC2CC2)oc2c1C(=O)C(=O)c1c-2ccc2c(C)cccc12 [BS-TA-B07]
## Result 16

## Task Please list IC90 recorded for the compound Cc1c(CN(C)CCOC(=O)CNC(=O)OC(C)(C)C)oc2c1C(=O)C(=O)c1c-2ccc2c(C)cccc12 [BS-TA-72]
## Result 9.92

## Task Please list IC90 recorded for the compound Cc1c(COC(=O)c2ccnc(Cl)c2)oc2c1C(=O)C(=O)c1c-2ccc2c(C)cccc12 [BS-TA-A01]
## Result 12.6

====

Provide the reported IC50 of each item.
# System: CNE (nasopharyngeal carcinoma cell)
# assay_remarks: MTT growth inhibition of human solid tumor cells, 72 h
# Format: cell-based
# applied_conditions: Homo sapiens, read-out: IC50
Dear colleague, please return just the value in µg/mL, with no unit written.

## Task Please list IC50 recorded for the compound `CC(=O)OCCN(C)Cc1oc2c(c1C)C(=O)C(=O)c1c-2ccc2c(C)cccc12`
## Result 2.8

## Task Please list IC50 recorded for the compound `CCC(=O)OCc1oc2c(c1C)C(=O)C(=O)c1c-2ccc2c(C)cccc12`
## Result 8.5

## Task Please list IC50 recorded for the compound CC[N+](C)(Cc1ccc(F)c(Cl)c1)Cc1oc2c(c1C)C(=O)C(=O)c1c-2ccc2c(C)cccc12 (centres unmarked)
## Result 3.87

## Task Please list IC50 recorded for the compound `Cc1c(CN(C)CCO)oc2c1C(=O)C(=O)c1c-2ccc2c(C)cccc12`
## Result 1.4

## Task Please list IC50 recorded for the compound `Cc1c(CN(C)CCOC(=O)[C@@H](N)C(C)C)oc2c1C(=O)C(=O)c1c-2ccc2c(C)cccc12`
## Result 0.63

## Task Please list IC50 recorded for the compound `COC(=O)/C=C/C(=O)OCCN(C)Cc1oc2c(c1C)C(=O)C(=O)c1c-2ccc2c(C)cccc12`
## Result 1.39

## Task Please list IC50 recorded for the compound Cc1c(C[N+](C)(CCO)Cc2ccc(F)c(Cl)c2)oc2c1C(=O)C(=O)c1c-2ccc2c(C)cccc12 (centres unmarked)
## Result 3.2

## Task Please list IC50 recorded for the compound `Cc1c(CNCC2CC2)oc2c1C(=O)C(=O)c1c-2ccc2c(C)cccc12`
## Result 9

## Task Please list IC50 recorded for the compound `CCN(C)Cc1oc2c(c1C)C(=O)C(=O)c1c-2ccc2c(C)cccc12`
## Result 8.8

## Task Please list IC50 recorded for the compound `Cc1c(CN(C)Cc2ccccc2)oc2c1C(=O)C(=O)c1c-2ccc2c(C)cccc12`
## Result 0.817

## Task Please list IC50 recorded for the compound `Cc1c(CN(C)CCOC(=O)C(C)(C)C)oc2c1C(=O)C(=O)c1c-2ccc2c(C)cccc12`
## Result 1.8
